# Test system: Staphylococcus aureus
# test.summary: Antibacterial activity against Vancomycin-resistant Staphylococcus aureus 4 assessed as inhibition of bacterial growth incubated for 18 to 24 hrs by CLSI microbroth dilution method
# Assay type: functional
# particulars: time 18-24 hrs
Could you please report measured MIC for the items listed next?
Answer with a number only, understood to be in µM.

INPUT: What does the record list as MIC for `CCCCCCCCNC(=O)c1ccc(CN[C@@]2(C)C[C@H](O[C@H]3[C@H](Oc4c5cc6cc4Oc4ccc(cc4Cl)[C@@H](O)[C@@H](NC(=O)[C@@H](CC(C)C)NC)C(=O)N[C@@H](CC(N)=O)C(=O)N[C@H]6C(=O)N[C@H]4C(=O)N[C@H](C(=O)N[C@H](C(=O)O)c6cc(O)cc(O)c6-c6cc4ccc6O)[C@H](O)c4ccc(c(Cl)c4)O5)O[C@H](CO)[C@@H](O)[C@@H]3O)O[C@@H](C)[C@H]2O)cc1` ?
OUTPUT: 2.1

INPUT: Thanks! And `CCCCCCCCCCCCCCNC(=O)C[N+](C)(C)CCCNC(=O)c1ccc(CN[C@@]2(C)C[C@H](O[C@H]3[C@H](Oc4c5cc6cc4Oc4ccc(cc4Cl)[C@@H](O)[C@@H](NC(=O)[C@@H](CC(C)C)NC)C(=O)N[C@@H](CC(N)=O)C(=O)N[C@H]6C(=O)N[C@H]4C(=O)N[C@H](C(=O)N[C@H](C(=O)O)c6cc(O)cc(O)c6-c6cc4ccc6O)[C@H](O)c4ccc(c(Cl)c4)O5)O[C@H](CO)[C@@H](O)[C@@H]3O)O[C@@H](C)[C@H]2O)cc1` ?
OUTPUT: 1.8

INPUT: Thanks! And `CCCCCCCCCCNC(=O)C[N+](C)(C)CCCNC(=O)c1ccc(CN[C@@]2(C)C[C@H](O[C@H]3[C@H](Oc4c5cc6cc4Oc4ccc(cc4Cl)[C@@H](O)[C@@H](NC(=O)[C@@H](CC(C)C)NC)C(=O)N[C@@H](CC(N)=O)C(=O)N[C@H]6C(=O)N[C@H]4C(=O)N[C@H](C(=O)N[C@H](C(=O)O)c6cc(O)cc(O)c6-c6cc4ccc6O)[C@H](O)c4ccc(c(Cl)c4)O5)O[C@H](CO)[C@@H](O)[C@@H]3O)O[C@@H](C)[C@H]2O)cc1` ?
OUTPUT: 0.45

INPUT: Thanks! And `CCCCCCCCCCCCNC(=O)C[N+](C)(C)CCCNC(=O)c1ccc(CN[C@@]2(C)C[C@H](O[C@H]3[C@H](Oc4c5cc6cc4Oc4ccc(cc4Cl)[C@@H](O)[C@@H](NC(=O)[C@@H](CC(C)C)NC)C(=O)N[C@@H](CC(N)=O)C(=O)N[C@H]6C(=O)N[C@H]4C(=O)N[C@H](C(=O)N[C@H](C(=O)O)c6cc(O)cc(O)c6-c6cc4ccc6O)[C@H](O)c4ccc(c(Cl)c4)O5)O[C@H](CO)[C@@H](O)[C@@H]3O)O[C@@H](C)[C@H]2O)cc1` ?
OUTPUT: 0.9

INPUT: Thanks! And `CCCCCCNC(=O)C[N+](C)(C)CCCNC(=O)c1ccc(CN[C@@]2(C)C[C@H](O[C@H]3[C@H](Oc4c5cc6cc4Oc4ccc(cc4Cl)[C@@H](O)[C@@H](NC(=O)[C@@H](CC(C)C)NC)C(=O)N[C@@H](CC(N)=O)C(=O)N[C@H]6C(=O)N[C@H]4C(=O)N[C@H](C(=O)N[C@H](C(=O)O)c6cc(O)cc(O)c6-c6cc4ccc6O)[C@H](O)c4ccc(c(Cl)c4)O5)O[C@H](CO)[C@@H](O)[C@@H]3O)O[C@@H](C)[C@H]2O)cc1` ?
OUTPUT: 29.8
